Exercise: for every item that follows, state its recorded MIC.
# System: S. hemolyticus AVHAH 88-3
# Protocol: MIC, agar dilution
# Format: cell-based
# Condition summary: Streptococcus pyogenes, AVHAH883, 18 h
Counter-ions that a name gives are not always drawn.
Express the result in µg/mL but write the number alone.

Ask | Look at this compound and give its reported MIC. CCN(CC)CC(=O)Nc1ccc2c(c1O)C(=O)C1=C(O)[C@]3(O)C(=O)C(C(N)=O)=C(O)[C@@H](N(C)C)C3CC1C2 (stereo partly drawn) [O, dihydrochloride]
Reply | 2

Ask | Look at this compound and give its reported MIC. CNCC(=O)Nc1ccc2c(c1O)C(=O)C1=C(O)[C@]3(O)C(=O)C(C(N)=O)=C(O)[C@@H](N(C)C)C3CC1C2 (stereo partly drawn) [F, dihydrochloride]
Reply | 1

Ask | Look at this compound and give its reported MIC. CN(C)[C@@H]1C(O)=C(C(N)=O)C(=O)[C@@]2(O)C(O)=C3C(=O)c4c(ccc(NC(=O)CNCC5CC5)c4O)CC3CC12 (stereo partly drawn) [Q, dihydrochloride]
Reply | 4
